Recorded values, source patent US12358927B2.

# EXPERIMENTAL_DETAILS: Equilibrium solubility experiment for biological media and pH buffers
# Format: physicochemical
# SETTINGS: water, pH 2.29, water, thermodynamic from solid; H2O, 37° C., 24 h; pH (24 h) 2.29; opalescent and opaque; read-out: Solubility (mg/mL) _24 hr
# Description: The taken samples were centrifuged, the supernatant of the samples was taken and diluted by a proper time after pH was determined, and the concentration of the supernatant was determined by UPLC. Diluent: acetonitrile:water (1:1) Mobile phase A: 0.1% aqueous FA solution […] The control solution STD #1 was taken and diluted by 1, 5, 10, 100, 1000, 2000 times, and recorded as linear solutions L1, L2, L3, L4, L5 and L6. The sample diluted by 2000 times was recorded as LOQ.
OBSERVABLE: solubility at 24 h (mg/mL)
The figure you give is taken to be in mg/mL; do not add the unit.

# solubility at 24 h lookup, item COC(=O)N1CCN([C@H]2CC[C@H](Nc3nc(Nc4cnn(C5CCOCC5)c4)nc4snc(C)c34)CC2)CC1
9.12
